# TARGET_SYSTEM: IN catalytic core CC (IN50-213) (HIV-1, UniProt P04585 1197-1360)
# METHOD_SUMMARY: fluorescence anisotropy
ASSAY_READOUT: Kd (nM)
I only need the number, in nM, no unit after it.

# query: Kd of entry U5A/U5B (dsDNA) DNA 1: GTGTGGAAAATCTCTAGCAGT DNA 2: ACTGCTAGAGATTTTCCACAC 61

Source of measurements: paper PMC2887959
